# experimental.system: methionine aminopeptidase-2 (MetAP2) (Homo sapiens)
# Construct: made in house; host or cells: insect cells, baculovirus system (secreted, purified from culture supernatant)
# Sequence (P50579 whole entry): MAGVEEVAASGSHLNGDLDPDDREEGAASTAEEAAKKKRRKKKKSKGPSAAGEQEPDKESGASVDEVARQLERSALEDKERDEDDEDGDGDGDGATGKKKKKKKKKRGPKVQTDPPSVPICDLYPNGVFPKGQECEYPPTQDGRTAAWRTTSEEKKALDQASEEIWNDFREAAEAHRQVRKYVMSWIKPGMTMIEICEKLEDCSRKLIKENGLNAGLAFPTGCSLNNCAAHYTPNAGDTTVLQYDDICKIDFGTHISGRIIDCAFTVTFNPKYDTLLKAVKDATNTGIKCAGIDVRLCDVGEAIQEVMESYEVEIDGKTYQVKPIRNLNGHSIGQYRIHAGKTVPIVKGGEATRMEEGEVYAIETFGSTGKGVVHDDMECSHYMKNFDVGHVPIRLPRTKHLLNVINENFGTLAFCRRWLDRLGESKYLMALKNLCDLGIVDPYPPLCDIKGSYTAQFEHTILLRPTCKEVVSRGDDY
# measurement.protocol: Inhibition of MetAP2 enzyme activity (96-well, Met-Ala-Ser substrate, L-amino acid oxidase/peroxidase/ortho-dianisidine, 450 nm)
# Format: biochemical
# condition.description: IC50, recombinant MetAP2 4 μg/mL, pH 7.4, Met-Ala-Ser substrate, 20 minutes
pIC50: −log10 of the molar value. Counter-ions that a name gives are not always drawn.

molecule: N[C@H](CC1CCCCC1)C(O)C(=O)NC1CCCC1 (mixture of isomers) [Example 207, Hydrochloride]
pIC50: 5.39
//
molecule: N[C@H](CC1CCCCC1)C(O)C(=O)Nc1cccc(OCc2ccccc2)c1 (mixture of isomers) [Example 223, Hydrochloride]
pIC50: 6.06
//
molecule: Cc1cc(I)ccc1NC(=O)C(O)[C@H](N)CC1CCCCC1 (mixture of isomers) [Example 173, hydrochloride]
pIC50: 6.24
//
molecule: CC(C)(C)CC(C)(C)NC(=O)C(O)[C@H](N)CC1CCCCC1 (mixture of isomers) [Example 230, Hydrochloride]
pIC50: 4.47
//
molecule: N[C@H](CC1CCCCC1)C(O)C(=O)NCc1ccccc1Cl (mixture of isomers) [Example 159]
pIC50: 5.82
//
molecule: CC(CCc1ccccc1)NC(=O)C(O)[C@H](N)CC1CCCCC1 (mixture of isomers) [Example 209, Hydrochloride]
pIC50: 4.85
//
molecule: NCCCCNC(=O)C(O)[C@H](N)CC1CCCCC1 (some centres unmarked) [Example 82, dihydrochloride]
pIC50: 4.42
//
molecule: N[C@H](CC1CCCCC1)C(O)C(=O)NC1CCC1 (mixture of isomers) [Example 208, Hydrochloride]
pIC50: 5.57
//
molecule: N[C@H](CC1CCCCC1)C(O)C(=O)Nc1ccc2c(c1)OCCO2 (mixture of isomers) [Example 222, Hydrochloride]
pIC50: 6.70
//
molecule: CCOc1ccc(OCC)c(NC(=O)C(O)[C@H](N)CC2CCCCC2)c1 (mixture of isomers) [Example 181, hydrochloride]
pIC50: 5.01
//
molecule: Cc1ccc(CNC(=O)C(O)[C@H](N)CC2CCCCC2)cc1 (mixture of isomers) [Example 187, hydrochloride]
pIC50: 5.92
//
molecule: N[C@H](CC1CCCCC1)C(O)C(=O)NCCc1ccc(OCc2ccccc2)c(OCc2ccccc2)c1 (mixture of isomers) [Example 167, hydrochloride]
pIC50: 5.48
//
molecule: CCOC(=O)[C@H](CO)NC(=O)C(O)[C@H](N)CC1CCCCC1 (some centres unmarked) [Example 46, hydrochloride]
pIC50: 5.96
//
molecule: C[C@H](NC(=O)C(O)[C@H](N)CC1CCCCC1)C(=O)NCCNc1ccc([N+](=O)[O-])cn1 (some centres unmarked) [Example 62, dihydrochloride]
pIC50: 5.12
